# method_description: amyloid nucleation score (Sup35N fusion, yeast selection) (log enrichment); library NNK2; higher = more nucleation; inactive = no reads after selection;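 note: zero at mode of non-aggregating sequences after 7 days selection at 30°C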

[
  {
    "substance": "RRWQTTS",
    "amyloid nucleation score": "inactive"
  },
  {
    "substance": "SNSCTPAGLETGNLK",
    "amyloid nucleation score": "inactive"
  },
  {
    "substance": "QQGYVTLSNFCGRA",
    "amyloid nucleation score": -0.292
  },
  {
    "substance": "CEISFVFIWILIVFNNVDPD",
    "amyloid nucleation score": "inactive"
  }
]

###

# method_description: amyloid nucleation score (Sup35N fusion, yeast selection) (log enrichment); library NNK1; higher = more nucleation; inactive = no reads after selection
measurement_type: amyloid nucleation score

[
  {
    "chain": "SLSPWWIHANPWWPYMSNQV",
    "measurement_type": "amyloid nucleation score",
    "obs_value": "inactive"
  },
  {
    "chain": "HVQIILYLSFKTRRLVDLCL",
    "measurement_type": "amyloid nucleation score",
    "obs_value": "inactive"
  },
  {
    "chain": "DSLWLRYVFMRTVLLMVHVR",
    "measurement_type": "amyloid nucleation score",
    "obs_value": "inactive"
  },
  {
    "chain": "QTTFGLMIFT",
    "measurement_type": "amyloid nucleation score",
    "obs_value": 0.89
  }
]

###

# method_description: amyloid nucleation score (Sup35N fusion, yeast selection) (log enrichment); library NNK2; higher = more nucleation; inactive = no reads after selection
Classify by measured amyloid nucleation score: YES if it is equal to or exceeds -0.3, NO if it is smaller.

[
  {
    "substance": "FMSGGVVYSLMTGTR",
    "assigned_label": "YES"
  },
  {
    "substance": "LLPIGEVKE",
    "assigned_label": "NO"
  },
  {
    "substance": "LVFLIETRNFFRLHLSGCWA",
    "assigned_label": "NO"
  },
  {
    "substance": "NLRWPIFNSWSSG",
    "assigned_label": "NO"
  },
  {
    "substance": "PMFCSLVLRI",
    "assigned_label": "NO"
  },
  {
    "substance": "CMRCILASCK",
    "assigned_label": "NO"
  },
  {
    "substance": "IESSEQSWT",
    "assigned_label": "NO"
  },
  {
    "substance": "VLTDSCKFYCELCQLNREVY",
    "assigned_label": "YES"
  },
  {
    "substance": "LVDKVYNDAILLVWDNESRT",
    "assigned_label": "NO"
  },
  {
    "substance": "VMMNSCNCRSYTLYLL",
    "assigned_label": "YES"
  },
  {
    "substance": "EKWLGLFKTYAESFDSCCLG",
    "assigned_label": "NO"
  },
  {
    "substance": "GLGAKYWIYVVGFHCVHN",
    "assigned_label": "YES"
  },
  {
    "substance": "RMSVYNF",
    "assigned_label": "YES"
  },
  {
    "substance": "FTGCVYSVFSNQQ",
    "assigned_label": "YES"
  },
  {
    "substance": "LHFTYCGSVMNVANDMVFVQ",
    "assigned_label": "YES"
  },
  {
    "substance": "RRRIWATM",
    "assigned_label": "YES"
  },
  {
    "substance": "HESKYNVQVFN",
    "assigned_label": "YES"
  }
]

###

# method_description: amyloid nucleation score (Sup35N fusion, yeast selection) (log enrichment); library NNK2; higher = more nucleation; inactive = no reads after selection

[
  {
    "chain": "VRCNFISVWSCDVESIVVES",
    "amyloid nucleation score": 5.1
  },
  {
    "chain": "NLGRAQTSQ",
    "amyloid nucleation score": 0.192
  },
  {
    "chain": "FIRQKGYTVFLVCGNYVWMT",
    "amyloid nucleation score": 5.98
  },
  {
    "chain": "MFYASFGVKL",
    "amyloid nucleation score": 0.655
  },
  {
    "chain": "TDLVDPGGTKHRKDS",
    "amyloid nucleation score": 0.523
  },
  {
    "chain": "LTGMVTCATI",
    "amyloid nucleation score": 0.53
  },
  {
    "chain": "RTERSAFLLAPGNGLSRVRR",
    "amyloid nucleation score": 0.831
  },
  {
    "chain": "FHSRFSMRPDDLWSQNARVW",
    "amyloid nucleation score": 0.028
  },
  {
    "chain": "DRYYVFLILWTRGNTRRPTG",
    "amyloid nucleation score": -1.02
  },
  {
    "chain": "GYDGRFIASRSVYFKARIGG",
    "amyloid nucleation score": -0.056
  }
]

###

# method_description: amyloid nucleation score (Sup35N fusion, yeast selection) (log enrichment); library NNK1; higher = more nucleation; inactive = no reads after selection
Assign class by amyloid nucleation score: not lower than 0.3 means criterion met; lower than 0.3 means criterion not met.

[
  {
    "chain": "HKNLQIVTFFVEYVSETPPG",
    "assigned_label": "criterion not met"
  },
  {
    "chain": "VRSPFSIHRRFLTLGIQEFS",
    "assigned_label": "criterion met"
  },
  {
    "chain": "TRSDQPTILTSLYLERNYSP",
    "assigned_label": "criterion not met"
  },
  {
    "chain": "SRYYASYFGIG",
    "assigned_label": "criterion not met"
  },
  {
    "chain": "MRCISYIYEHAL",
    "assigned_label": "criterion met"
  },
  {
    "chain": "CSVKCKTRCVYRFMESKWF",
    "assigned_label": "criterion not met"
  },
  {
    "chain": "SMMEAFDPKYAVSWSVESLT",
    "assigned_label": "criterion met"
  },
  {
    "chain": "VVHLSLCMRCALWRYRELVC",
    "assigned_label": "criterion met"
  },
  {
    "chain": "ALAVVVLFLCVSTPAYVAFE",
    "assigned_label": "criterion met"
  },
  {
    "chain": "SHLNHEGFRLIQCLIWSLHW",
    "assigned_label": "criterion met"
  },
  {
    "chain": "NLLHESCRVLYS",
    "assigned_label": "criterion met"
  },
  {
    "chain": "YVGAMCLTRGKVRRSEERN",
    "assigned_label": "criterion met"
  },
  {
    "chain": "GTLYWLHASV",
    "assigned_label": "criterion met"
  },
  {
    "chain": "RIGFPVRYEEFALRFIYILE",
    "assigned_label": "criterion not met"
  },
  {
    "chain": "VLIWPGRRNSARSYWSSSGL",
    "assigned_label": "criterion met"
  },
  {
    "chain": "SECLLYSWRVILSRLSPESE",
    "assigned_label": "criterion not met"
  },
  {
    "chain": "SCAWRYNICTLISVRWVCK",
    "assigned_label": "criterion met"
  },
  {
    "chain": "HSGQYCSAHPGFVK",
    "assigned_label": "criterion not met"
  },
  {
    "chain": "CYVMLINAEND",
    "assigned_label": "criterion not met"
  }
]

###

# method_description: amyloid nucleation score (Sup35N fusion, yeast selection) (log enrichment); library NNK3; higher = more nucleation; inactive = no reads after selection
measurement_type: amyloid nucleation score

[
  {
    "chain": "RTLCRLWTLCCRCRSYALFR",
    "obs_value": "inactive"
  },
  {
    "chain": "CSQPCRHFYKVKGGYTFKCL",
    "obs_value": "inactive"
  },
  {
    "chain": "DCFSKRWLHLFANYSSVSTN",
    "obs_value": "inactive"
  },
  {
    "chain": "QHTGGVLRRTMFINRVSRRM",
    "obs_value": "inactive"
  },
  {
    "chain": "STNMFVCDGRTPTNYWLGIR",
    "obs_value": 1.42
  },
  {
    "chain": "NFTGSCVPVIRQMASCFSSF",
    "obs_value": "inactive"
  },
  {
    "chain": "RLMNFVPSFVFCCFYKK",
    "obs_value": 1.27
  },
  {
    "chain": "WANNSCAIRGNNSPMGGSVA",
    "obs_value": "inactive"
  },
  {
    "chain": "CKRHLNYSVSRAKAEKINYL",
    "obs_value": "inactive"
  },
  {
    "chain": "VSRVSLKRRYALM",
    "obs_value": -1.13
  },
  {
    "chain": "GSRLSIQTFMTS",
    "obs_value": "inactive"
  },
  {
    "chain": "PIGGLEFNMGFRYRVIRVTM",
    "obs_value": -0.436
  },
  {
    "chain": "ILVSFVVGTNLLWGDASVRW",
    "obs_value": 0.236
  },
  {
    "chain": "FLGFEYILIAFRVGQYYLTG",
    "obs_value": "inactive"
  },
  {
    "chain": "DWFSMVSRSGVDLKSVKRFG",
    "obs_value": "inactive"
  },
  {
    "chain": "VFVTRYKTKTPCLMTVRKEL",
    "obs_value": "inactive"
  },
  {
    "chain": "VFESCEYSRQVVGNFRDEM",
    "obs_value": "inactive"
  },
  {
    "chain": "REKTWFCSFIVTLGVCGWDG",
    "obs_value": "inactive"
  },
  {
    "chain": "TNGLVLHRSWLEFFLYYTQR",
    "obs_value": "inactive"
  },
  {
    "chain": "EHNAKEHITLGLTSWPNRLG",
    "obs_value": "inactive"
  }
]
